Measured values drawn from patent EP0293880B1 for this set.

The reader will find reported log10(IC50) values listed item by item below.
Biological target: acyl-CoA:cholesterol acyl-transferase (ACAT)
Assay: In vitro ACAT inhibition test (radio-labeled cholesterol oleate formed from radio-labeled oleic acid in rabbit intestinal microsomes)
Settings: tissue preparation containing rabbit intestinal microsomes; concentration required to inhibit 50% expression of the enzyme; read-out: IC₅₀
Property label: log10(IC50) (log10 of the value in µM)

{"Structure smiles string": "Cc1cccc(C(C)C)c1NC(=O)NCC1(c2ccccc2)CCCC1", "log10(IC50)": -1.80}
{"Structure smiles string": "Cc1cccc(C(C)(C)C)c1NC(=O)NC1(c2cccs2)CCCCC1", "log10(IC50)": -0.59}
{"Structure smiles string": "CCc1cccc(CC)c1NC(=O)NC1(c2ccccc2)CCC1", "log10(IC50)": -0.64}
{"Structure smiles string": "CC(C)c1cccc(C(C)C)c1NC(=O)NC1(c2cccs2)CCCCC1", "log10(IC50)": -1.37}
{"Structure smiles string": "CC(C)c1cccc(C(C)C)c1NC(=O)NCC1(c2ccccc2)CCCCC1", "log10(IC50)": -1.68}
{"Structure smiles string": "O=C(NCC1(c2ccccc2)CCCCC1)Nc1c(Br)cc(F)cc1Br", "log10(IC50)": -1.41}
{"Structure smiles string": "Cc1cccc(C(C)C)c1NC(=O)NC1(c2cccs2)CCCCC1", "log10(IC50)": -0.64}
{"Structure smiles string": "O=C(NCC1(c2ccccc2)CCCC1)Nc1ccc(F)cc1F", "log10(IC50)": 0.11}
{"Structure smiles string": "Cc1cccc(C(C)C)c1NC(=O)NCC1(c2ccccc2)CCCCC1", "log10(IC50)": -1.24}
{"Structure smiles string": "O=C(Nc1ccc(F)cc1F)NC1(c2cccs2)CCCCC1", "log10(IC50)": -0.43}
{"Structure smiles string": "Cc1cccc(C(C)(C)C)c1NC(=O)NCC1(c2ccccc2)CCCC1", "log10(IC50)": -1.74}
{"Structure smiles string": "COc1cc(OC)c(NC(=O)NC2(c3ccccc3)CCCC2)c(OC)c1", "log10(IC50)": -0.15}
{"Structure smiles string": "CCc1cccc(CC)c1NC(=O)NCC1(c2ccccc2)CCCC1", "log10(IC50)": -1.82}
{"Structure smiles string": "Cc1cccc(C)c1NC(=O)NCC1(c2ccccc2)CCCCC1", "log10(IC50)": -1.09}
{"Structure smiles string": "Cc1cccc(C)c1NC(=O)NC1(c2ccccc2)CCCC1", "log10(IC50)": -1.10}
{"Structure smiles string": "CCc1cccc(CC)c1NC(=O)NCC1(c2ccccc2)CC1", "log10(IC50)": -1.06}
{"Structure smiles string": "CCc1cccc(CC)c1NC(=O)NC1(c2ccccc2)CCCC1", "log10(IC50)": -0.92}
